# inhibition of growth at 1 µg/mL annotations
Tested on: Fusarium oxysporum
Assay: Fungicidal activity against Fusarium oxysporum assessed as growth inhibition at 1 ug/mL
Type: functional
Settings: read-out: GI
measure name: inhibition of growth at 1 µg/mL (%)

>  <molecule>
CN(C)CC(O)(Cn1cncn1)c1ccc(Oc2ccc(Cl)cc2)cc1Cl (stereo unspecified)

>  <measure name>
inhibition of growth at 1 µg/mL

>  <value observed>
0

$$$$
>  <molecule>
CC(O)(Cn1cncn1)c1ccc(Oc2ccc(F)cc2)cc1Cl (stereo unspecified)

>  <measure name>
inhibition of growth at 1 µg/mL

>  <value observed>
17.9

$$$$
>  <molecule>
CNCC(O)(Cn1cncn1)c1ccc(Oc2ccc(F)cc2)cc1Cl (stereo unspecified)

>  <measure name>
inhibition of growth at 1 µg/mL

>  <value observed>
68.7

$$$$
>  <molecule>
CNCC(O)(Cn1cncn1)c1ccc(Oc2ccc(Cl)cc2)cc1Cl (stereo unspecified)

>  <measure name>
inhibition of growth at 1 µg/mL

>  <value observed>
0

$$$$
>  <molecule>
COCC(O)(Cn1cncn1)c1ccc(Oc2ccc(Cl)cc2)cc1Cl (stereo unspecified)

>  <measure name>
inhibition of growth at 1 µg/mL

>  <value observed>
89.9

$$$$
>  <molecule>
CONCC(O)(Cn1cncn1)c1ccc(Oc2ccc(Cl)cc2)cc1Cl (stereo unspecified)

>  <measure name>
inhibition of growth at 1 µg/mL

>  <value observed>
0

$$$$
>  <molecule>
COCC(O)(Cn1cncn1)c1ccc(Oc2ccc(F)cc2)cc1Cl (stereo unspecified)

>  <measure name>
inhibition of growth at 1 µg/mL

>  <value observed>
82.7

$$$$
>  <molecule>
CC1COC(Cn2cncn2)(c2ccc(Oc3ccc(Cl)cc3)cc2Cl)O1 (stereo unspecified)

>  <measure name>
inhibition of growth at 1 µg/mL

>  <value observed>
53.1

$$$$
>  <molecule>
CC(C)(C)C(O)(CCc1ccc(Cl)cc1)Cn1cncn1 (stereo unspecified)

>  <measure name>
inhibition of growth at 1 µg/mL

>  <value observed>
65.6

$$$$
>  <molecule>
OC(Cn1cncn1)(Cn1cncn1)c1ccc(Oc2ccc(F)cc2)cc1Cl

>  <measure name>
inhibition of growth at 1 µg/mL

>  <value observed>
90

$$$$
>  <molecule>
OC(Cn1cncn1)(Cn1cncn1)c1ccc(Oc2ccc(Cl)cc2)cc1Cl

>  <measure name>
inhibition of growth at 1 µg/mL

>  <value observed>
62.5

$$$$

----------
Tested on: Mycosphaerella arachidis
Assay: Fungicidal activity against Mycosphaerella arachidis assessed as growth inhibition at 1 ug/mL
Assay type: functional
Conditions: read-out: GI
inhibition of growth at 1 µg/mL by entry:

>  <molecule>
CC(C)(C)C(O)(CCc1ccc(Cl)cc1)Cn1cncn1 (stereo unspecified) [TEBUCONAZOLE]

>  <units symbol>
%

>  <inhibition of growth at 1 µg/mL>
91

$$$$
>  <molecule>
CNCC(O)(Cn1cncn1)c1ccc(Oc2ccc(Cl)cc2)cc1Cl (stereo unspecified)

>  <units symbol>
%

>  <inhibition of growth at 1 µg/mL>
57.2

$$$$
>  <molecule>
CN(C)CC(O)(Cn1cncn1)c1ccc(Oc2ccc(Cl)cc2)cc1Cl (stereo unspecified)

>  <units symbol>
%

>  <inhibition of growth at 1 µg/mL>
0

$$$$
>  <molecule>
OC(Cn1cncn1)(Cn1cncn1)c1ccc(Oc2ccc(F)cc2)cc1Cl

>  <units symbol>
%

>  <inhibition of growth at 1 µg/mL>
39.5

$$$$
>  <molecule>
CNCC(O)(Cn1cncn1)c1ccc(Oc2ccc(F)cc2)cc1Cl (stereo unspecified)

>  <units symbol>
%

>  <inhibition of growth at 1 µg/mL>
72.1

$$$$
>  <molecule>
OC(Cn1cncn1)(Cn1cncn1)c1ccc(Oc2ccc(Cl)cc2)cc1Cl

>  <units symbol>
%

>  <inhibition of growth at 1 µg/mL>
88.1

$$$$
>  <molecule>
CC(O)(Cn1cncn1)c1ccc(Oc2ccc(F)cc2)cc1Cl (stereo unspecified)

>  <units symbol>
%

>  <inhibition of growth at 1 µg/mL>
37.5

$$$$
>  <molecule>
COCC(O)(Cn1cncn1)c1ccc(Oc2ccc(F)cc2)cc1Cl (stereo unspecified)

>  <units symbol>
%

>  <inhibition of growth at 1 µg/mL>
76.2

$$$$
>  <molecule>
COCC(O)(Cn1cncn1)c1ccc(Oc2ccc(Cl)cc2)cc1Cl (stereo unspecified)

>  <units symbol>
%

>  <inhibition of growth at 1 µg/mL>
78.6

$$$$
>  <molecule>
CC1COC(Cn2cncn2)(c2ccc(Oc3ccc(Cl)cc3)cc2Cl)O1 (stereo unspecified) [DIFENOCONAZOLE]

>  <units symbol>
%

>  <inhibition of growth at 1 µg/mL>
56.7

$$$$
>  <molecule>
CONCC(O)(Cn1cncn1)c1ccc(Oc2ccc(Cl)cc2)cc1Cl (stereo unspecified)

>  <units symbol>
%

>  <inhibition of growth at 1 µg/mL>
55.3

$$$$

Sourced from ChEMBL document CHEMBL3045156
